Assay: yeast display, Sf9 membrane polyspecificity reagent, FACS + sequencing; frameworks hold sequencing errors
test_readout: polyreactivity (PSR sort gate)

sequence_input | measurement
QVQRVESGGGLVQAGGSLRLSCAASGFTSLIYAMGWYRQAPGKESELVATITWGGGSTYADSVKGRFTISRDNAKNTVYLQMNSLKPEDTAVFYCIADIYDSWDYATVYSDRYDYWGQGTQVTVSS | low polyreactivity
QVQLVESGGGLVQAGGSLRLSCAASGSTIGGYAMGWYRQAPGKERELVAAISWDDVRTYYADSVKGRFTISRDNAKNTVYLLMNSLKPEDTAVYYCNTDGLIAIRGLWWVEYDYWGQGTQVTVSS | low polyreactivity
QQLQESGGGLVQAGGSLRLSCAASGSISGSVLMGWYRQAPGKEREFVASISLGGNTNYADSVKGRFTISRENAKNTVYLQMNCLKPEVAAVYYCAAYISLFETHPYWGQGTQVTVSS | high polyreactivity
QVQLVESGGGLVQAGGSLRLSCAASGRTYVSYAMGWYRQAPGKERELVATITGSTGGTYYADSVKGRFTISRDHAKNTVYLQMNSLKPEDTAVYYCNKDYYYNPGNVASGYDYWGQGTQVTVSS | low polyreactivity
QVQLVESGGGLVQAGGSLRLSCAASGSIFGSYDMGWYRQAPGKERELVAAISEGGGSTYYADTVKGRFTISRDNAMNTVYLQMYSLKPEDTAVYYCAADLILSYYPYYQDYYWGQGTQVTVSS | low polyreactivity
QVQLVESGGGLVQAGGSLRLSCAASGSTFDRNAMGWYRQAPGKERELVASITWTGGSTYYADSVKGRFTISRDNAKNTVYLQMNSLKPEDTAVYYCNADLLYLDYLYGLDYWGQGTQVTVSS | high polyreactivity

Record polyreactivity (PSR sort gate) per entry; entries follow.
1. QVQLQESGAGLDQAGGSLRLSCAPSGYISDIGTMGWYRQAPGKEREFVATIVVGSTTNYADSVKGRFTISRDNAKNTVYLQPESGRYRGVVLRGWLLAVGKFTYWGQGTQETVSS
2. QVQLVESGGGLVQAGGSLRLSCAASGSIFVVYAMGWYRQAPGKERELVAAISWGIGSTYYADSVKGRFTISRDNAKYTVYLQMNSLKPEDTAVYYCAAETDIVLYDYWGQGTQVTVSS
3. QVQLVESGGGLVQAGGSLRLSCAASGSSFSYYTMGWYRQAPGKERELVAAITSGGPTNYADSVKGRFTISRDNAKKTVYLQMNSLKPEDTAVYYCAADLYYGWGYYYWGQGTQVTVSS

Reply |
1: low polyreactivity; 2: low polyreactivity; 3: low polyreactivity

Each sequence below has a recorded value; state its polyreactivity (PSR sort gate).
1. QVQLVESGGGLVQAGGSLRLSCAASGRTFYYYAMGWYRQAHGKERELVAAISTNGGSTYYADSVKGRFTISRDNAKNTVYLQMNSLKPEDTAVYYCNTYAKPHRSGGGLGGHYYWGQGTQVTLSS
2. QVQLVESGGGLVQAGGSLRLSCAASGFIFSKNVMGWYRQATGKERELVALINRSGGTTYYADSVKGRFTISRDNAKNTVYLQMNSLKPEDTAVYYCAARRYGYTSITWYDYLGQGTQVTVSS

Reply |
low polyreactivity
high polyreactivity

====

Assay: yeast display, Sf9 membrane polyspecificity reagent, FACS + sequencing; frameworks hold sequencing errors
test_readout: polyreactivity (PSR sort gate)

sequence_input | measurement
QVQLVESGGGLVQAGGSLRLSCAAYGGIFSYNAKGWYSQAPGKEREFVASISSSGGRTYYADSVKGRFTISRDNAQNTVYLQMKSLKPEDTAVYYCAKRGQLRHYSWGQGTQVTVSS | low polyreactivity
QVQLVESGGGLVQAGGSLRLICAASGSIFYANAMGWYRQAPGKEREFVAANSSSGGGTSYADSVKGRFTISRDNAKNTVYLQMNSLKPEDTAVYYCAARVTYGGIPARQIYDYWGQGTQVTVSS | low polyreactivity
